# System: Fibroblast
# protocol: Inhibition of endogenous ROS production in human skin fibroblast assessed as DCF-fluorescence at 10 uM after 4 hrs by DCFH-DA assay relative to control
# Parameters: scale not given: the % may be the effect or the level left
The label is YES for Activity below 80% and NO for Activity equal to or exceeding 80%.

**Q:** Lab note: confirm whether the reported Activity for this compound is below 80%, equality not counting. compound: CC(C)C(=O)c1c(O)cc2c(c1O)C[C@@H]1C(C)(C)CCC[C@@]1(C)O2
**A:** NO

**Q:** Lab note: confirm whether the reported Activity for this compound is below 80%, equality not counting. compound: CC(C)=CCCC1(C)CCc2c(cc(O)c(C(=O)C(C)C)c2O)O1 (configuration not stated)
**A:** NO

**Q:** Lab note: confirm whether the reported Activity for this compound is below 80%, equality not counting. compound: CC(C)=CCCC(C)(O)CCc1c(O)cc(O)c(C(=O)C(C)C)c1O (configuration not stated)
**A:** YES

**Q:** Lab note: confirm whether the reported Activity for this compound is below 80%, equality not counting. compound: CC(C)=CCC/C(C)=C/COc1cc(O)c(C(=O)C(C)C)c(O)c1
**A:** NO

====

# Test system: Fibroblast
# protocol: Inhibition of endogenous ROS production in human skin fibroblast assessed as DCF-fluorescence at 10 uM after 4 hrs by DCFH-DA assay relative to control
# Parameters: scale not given: the % may be the effect or the level left
observed_property: Activity (%)
One number for each entry, in %.

CC(C)=CCCC1(C)CCc2c(O)cc(O)c(C(=O)C(C)C)c2O1 (stereo not drawn) :: 81.5

Parameter requested: Activity. Apply to each item below.
1. Cc1c(C)c2c(c(C)c1O)CCC(C)(C(=O)O)O2 (stereo not drawn)
2. CC(C)=CCC/C(C)=C/Cc1c(O)cc(O)c(C(=O)C(C)C)c1O

**A:**
[81.4, 79.4]
